Molecular target: T1, Mouse MuSK as it stands on mouse muscle (neuromuscular junctions, C2C12 myotubes) (mouse, UniProt Q61006 22-868)
T1 sequence (looked up): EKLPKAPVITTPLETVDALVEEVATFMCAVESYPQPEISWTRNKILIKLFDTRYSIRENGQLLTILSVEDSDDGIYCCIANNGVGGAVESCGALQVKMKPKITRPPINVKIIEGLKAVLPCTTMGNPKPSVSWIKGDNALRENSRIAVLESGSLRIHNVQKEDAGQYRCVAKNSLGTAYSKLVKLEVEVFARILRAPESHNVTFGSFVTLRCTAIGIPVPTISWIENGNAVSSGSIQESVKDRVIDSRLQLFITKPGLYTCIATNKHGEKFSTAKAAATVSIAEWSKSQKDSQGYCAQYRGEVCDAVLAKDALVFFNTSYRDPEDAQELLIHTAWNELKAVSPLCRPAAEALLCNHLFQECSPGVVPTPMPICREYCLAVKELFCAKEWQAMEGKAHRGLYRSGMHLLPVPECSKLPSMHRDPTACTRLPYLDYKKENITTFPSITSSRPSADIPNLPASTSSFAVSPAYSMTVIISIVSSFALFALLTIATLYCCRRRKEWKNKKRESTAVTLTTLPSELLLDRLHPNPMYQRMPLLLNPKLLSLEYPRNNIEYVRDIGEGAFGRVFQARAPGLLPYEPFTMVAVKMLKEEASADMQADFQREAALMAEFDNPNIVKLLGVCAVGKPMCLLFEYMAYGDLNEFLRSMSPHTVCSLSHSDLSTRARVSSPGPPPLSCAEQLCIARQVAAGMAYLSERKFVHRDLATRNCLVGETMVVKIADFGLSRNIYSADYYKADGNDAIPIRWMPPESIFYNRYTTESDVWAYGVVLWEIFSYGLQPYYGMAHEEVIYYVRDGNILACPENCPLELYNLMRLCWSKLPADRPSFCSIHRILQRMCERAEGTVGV
Assay: cell-based or functional assay
endpoint.name: AChR clusters larger or equal to 3 µm compared to agrin; antibody 1.1 µg/mL

**Query** Give a short answer stating reported AChR clusters larger or equal to 3 µm compared to agrin; antibody 1.1 µg/mL for 3F6c (antibody, human IgG1, kappa, L234A L235A, V domains shown) VH: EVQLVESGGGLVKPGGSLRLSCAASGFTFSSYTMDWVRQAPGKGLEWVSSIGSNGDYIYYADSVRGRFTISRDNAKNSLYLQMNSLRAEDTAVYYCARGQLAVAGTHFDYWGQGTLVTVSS VL: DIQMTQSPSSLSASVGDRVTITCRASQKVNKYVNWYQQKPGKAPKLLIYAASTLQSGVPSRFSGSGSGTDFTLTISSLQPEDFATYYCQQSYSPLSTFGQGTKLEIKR .
**Result** 57 % of agrin
